src = patent US20220056087A1

Molecular target: T1, mouse SIGN-R1 (immobilized on CM4 chip) (mouse, UniProt Q8CJ91 74-325, limits assumed)
T1 sequence (looked up): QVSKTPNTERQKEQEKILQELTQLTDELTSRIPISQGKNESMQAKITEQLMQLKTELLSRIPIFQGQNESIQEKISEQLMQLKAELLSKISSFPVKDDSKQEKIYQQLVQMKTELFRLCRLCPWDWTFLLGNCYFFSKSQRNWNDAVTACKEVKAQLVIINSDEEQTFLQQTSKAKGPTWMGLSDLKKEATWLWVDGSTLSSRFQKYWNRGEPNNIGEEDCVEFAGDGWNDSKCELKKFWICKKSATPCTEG
Test: SPR (Biacore) as in Example 4, SIGN-R1 on the chip
Each entry below carries its recorded Kd.
Give your result in nM as a bare value.

Use the examples below as a reference point.
M028 stradomer (Fc fusion, Murine counterpart of G028 (N-terminal isoleucine zipper); The entry may include a leader) SIKQIEDKIEEILSKIYHIENEIARIKKLIGERGEPRGPTIKPCPPCKCPAPNLLGGPSVFIFPPKIKDVLMISLSPIVTCVVVDVSEDDPDVQISWFVNNVEVHTAQTQTHREDYNSTLRVVSALPIQHQDWMSGKEFKCKVNNKDLPAPIERTISKPKGSVRAPQVYVLPPPEEEMTKKQVTLTCMVTDFMPEDIYVEWTNNGKTELNYKNTEPVLDSDGSYFMYSKLRVEKKNWVERNSYSCSVVHEGLHNHHTTKSFSRTPGK :: 638
M045 F2 (Fc fusion, also called lower molecular weight multimer fraction of M045) stradomer monomer: DEPRGPTIKPCPPCKCPAPNLLGGPSVFIFPPKIKDVLMISLSPIVTCVVVDVSEDDPDVQISWFVNNVEVHTAQTQTHREDYNSTLRVVSALPIQHQDWMSGKEFKCKVNNKDLPAPIERTISKPKGSVRAPQVYVLPPPEEEMTKKQVTLTCMVTDFMPEDIYVEWTNNGKTELNYKNTEPVLDSDGSYFMYSKLRVEKKNWVERNSYSCSVVHEGLHNHHTTKSFSRTPGKERKCCVECPPCP :: 91.2
M045c stradomer (Fc fusion, Murine counterpart of G045c; The entry may include a leader that is cleaved from the secreted protein; Mix of homodimers and multimers) DEPRGPTIKPCPPCKCPAPNLLGGPSVFIFPPKIKDVLMISLSPIVTCVVVDVSEDDPDVQISWFVNNVEVHTAQTQTHREDYNSTLRVVSALPIQHQDWMSGKEFKCKVNNKDLPAPIERTISKPKGSVRAPQVYVLPPPEEEMTKKQVTLTCMVTDFMPEDIYVEWTNNGKTELNYKNTEPVLDSDGSYFMYSKLRVEKKNWVERNSYSCSVVHEGLHNHHTTKSFSRTPGKERKCCVECPPCP :: 334

[Q] Input M045 F1 (highest molecular weight multimer fraction of M045c) (Fc fusion, The entry may include a leader; also called Fraction 1; M045 Fraction 1) DEPRGPTIKPCPPCKCPAPNLLGGPSVFIFPPKIKDVLMISLSPIVTCVVVDVSEDDPDVQISWFVNNVEVHTAQTQTHREDYNSTLRVVSALPIQHQDWMSGKEFKCKVNNKDLPAPIERTISKPKGSVRAPQVYVLPPPEEEMTKKQVTLTCMVTDFMPEDIYVEWTNNGKTELNYKNTEPVLDSDGSYFMYSKLRVEKKNWVERNSYSCSVVHEGLHNHHTTKSFSRTPGKERKCCVECPPCP , output reported Kd.
[A] 90.9
